test system: Wild type; test: S. aureus survival, RN4220 and DeltatarO strains – OD600, teichoic acid synthesis inhibitors, primary screen (AID 463173); details: S. aureus RN4220 wild type/DeltatarO growth, OD600, 18 h, screened at 18.75 µg/mL (by protocol)
In all, about 52,000 compounds went through this assay and about 1,700 (3.3%) were called active. No stated cut-off is given here; in the data, active means survival mostly below about 52% (no sharp cut-off); inactive means mostly above about 56%. For the sample, actives were picked, then their nearest neighbours and some compounds at random.
Please answer using one outcome listed in True (active), False (inactive)

{"molecule": "Cc1cccc(N2C(=O)C(CC(=O)Nc3cccc(F)c3)N(Cc3cccs3)C2=O)c1 (stereo not given)", "class label": "True"}
{"molecule": "CCN(CCCNC(=O)Cn1ncc2c([nH]c3ccc(C)cc32)c1=O)Cc1ccccc1", "class label": "False"}
{"molecule": "COc1cccc(COC(=O)c2nn(-c3ccccc3)nc2N)c1", "class label": "False"}
{"molecule": "Nc1nn(-c2ccccc2)nc1C(=O)OCc1c(F)cccc1Cl", "class label": "False"}
{"molecule": "Nc1nn(-c2ccccc2)nc1C(=O)OCc1ccccc1Br", "class label": "True"}

Dear all, I need the recorded test outcome for COc1cc(NC(=O)CC2C(=O)N(c3cccc(C)c3)C(=O)N2Cc2cccs2)cc(OC)c1 (stereo not given) , thank you.
False

Hello, I am checking results. What call was entered for Cc1cccc(N2C(=O)C(CC(=O)Nc3cccc(F)c3)N(CCc3ccncc3)C2=O)c1 (stereo not given) ?
False

Test call for this molecule, please: CCOc1ccc(NC(=O)CC2C(=O)N(c3cccc(C)c3)C(=O)N2Cc2cccs2)cc1 (stereo not given)
False

Test call, this molecule: CCc1ccc(NC(=O)CC2C(=O)N(c3cccc(C)c3)C(=O)N2Cc2cccs2)cc1 (stereo not given)
True

Dear colleague, could you share the recorded outcome for Cc1ccc(C(=O)c2cn(Cc3ccc(F)cc3)c3nc(C)ccc3c2=O)cc1 when you have a moment?
False

* * *

tested on: Wild type; experiment: S. aureus survival, RN4220 and DeltatarO strains – OD600, teichoic acid synthesis inhibitors, primary screen (AID 463173); conditions: S. aureus RN4220 wild type/DeltatarO growth, OD600, 18 h, screened at 18.75 µg/mL (by protocol)
Among all 52,000 compounds or so, about 1,700 (3.3%) were called active. Rule as the data show it: active = survival mostly below about 52% (no sharp cut-off); inactive = mostly above about 56%. Many of the other results were omitted from the sample, so actives are more common in it than they were.
Returns: one label drawn from active, inactive

For orientation, consider the following solved cases.
{"molecule": "O=C(Cn1c(SCC(=O)Nc2ccc(F)cc2)nc2ccccc21)NCc1ccc(F)cc1", "class label": "inactive"}
{"molecule": "Cc1cc(C)cc(NC(=O)CSc2nc3c(cnn3-c3ccc(F)cc3)c(=O)[nH]2)c1", "class label": "inactive"}
{"molecule": "O=C(CSc1nc2ccccc2n1CC(=O)Nc1ccc(F)cc1F)Nc1ccc(F)cc1", "class label": "inactive"}

Record request — test call for COC(=O)C1CCCc2c1[nH]c1ccc(Cl)cc21 (stereo not given)
inactive

* * *

system: Wild type; experiment: S. aureus survival, RN4220 and DeltatarO strains – OD600, teichoic acid synthesis inhibitors, primary screen (AID 463173); conditions: S. aureus RN4220 wild type/DeltatarO growth, OD600, 18 h, screened at 18.75 µg/mL (by protocol)
Hit rate of the full screen: of about 52,000 compounds, about 1,700 (3.3%) were called active. Cut-off read from the data, not from the text of the source: active = survival mostly below about 52% (no sharp cut-off); inactive = mostly above about 56%. The sample as a whole holds a higher share of actives than the screen did.
Outcome (select one): Y for active, N for inactive

See these solved cases before continuing.
{"compound": "CC(=O)Nc1c(C)nn(-c2ccccc2)c1N1CCC(C(=O)Nc2ccc(F)cc2Cl)CC1", "class label": "N"}
{"compound": "COc1cccc(C2C(C(=O)Nc3ccccc3)=C(C)Nc3nc(-c4ccccc4)nn32)c1 (configuration not stated)", "class label": "N"}

For the next question, use this compound.
Which outcome did this test record for the compound CC(C)(C)C(=O)NCC(c1ccc2c(c1)OCO2)N1CCOCC1 (configuration not stated) ?
Y

* * *

tested on: Wild type; experiment: S. aureus survival, RN4220 and DeltatarO strains – OD600, teichoic acid synthesis inhibitors, primary screen (AID 463173); settings: S. aureus RN4220 wild type/DeltatarO growth, OD600, 18 h, active compounds read low, screened at 18.75 µg/mL (by protocol)
Hit rate of the full screen: of about 52,000 compounds, about 1,700 (3.3%) were called active. The entries come from a sample that favours actives as a whole.
Cut-off 80% on survival: below means Y, at or above means N.

Below are worked cases with known answers.
{"molecular string": "CCn1cc(C(=O)NCCCOC(C)C)c(=O)c2cc(S(=O)(=O)N3CCOCC3)ccc21", "assayed system": "Wild type", "class label": "N"}
{"molecular string": "Cc1ccc(C(=O)CSc2nc(-c3ccccc3)nc3c2CCCC3)cc1", "assayed system": "Wild type", "class label": "Y"}

Problem: For the compound Cc1ccc(C)c(C(=O)CSc2nc(-c3ccccc3)nc3c2CCCC3)c1 , is survival under 80%?
Y

* * *

system: Wild type; test: S. aureus survival, RN4220 and DeltatarO strains – OD600, teichoic acid synthesis inhibitors, primary screen (AID 463173); conditions: S. aureus RN4220 wild type/DeltatarO growth, OD600, 18 h, screened at 18.75 µg/mL (by protocol)
Hit rate of the full screen: of about 52,000 compounds, about 1,700 (3.3%) were called active. Cut-off read from the data, not from the text of the source: active = survival mostly below about 52% (no sharp cut-off); inactive = mostly above about 56%. Only a selection was taken, and actives are over-represented in it overall.
Could you please pick one outcome from this set? active, inactive

Worked cases, answers included:
{"molecule": "COc1cccc(-c2cnc(NCc3ccccc3Cl)n2C)c1", "class label": "inactive"}
{"molecule": "Cc1ccc(-c2nn3c(-c4ccccc4)nnc3c3ccccc23)cc1", "class label": "inactive"}
{"molecule": "Cc1ccc(-c2cnc(NC(=O)CCC(=O)N3CCCCC3)n2C)cc1", "class label": "inactive"}
{"molecule": "CCOC(=O)N1CCN(c2ncnc3c2cnn3-c2ccccc2)CC1", "class label": "inactive"}
{"molecule": "Cc1ccc(NC(=O)Cn2ccn(-c3ccc(F)c(F)c3)c(=O)c2=O)cc1C", "class label": "inactive"}
{"molecule": "Cc1cccc(-n2c(=O)c3c(c4cc(C)ccc4n3C)n(Cc3ccccc3F)c2=O)c1", "class label": "inactive"}

Called result for CCOc1ccc(-c2cnc(NCc3cccc(Cl)c3)n2C)cc1
inactive

Field: outcome | Entry: COc1ccc(-c2nn3c(-c4ccc(OC)cc4)nnc3c3ccccc23)cc1
inactive

Could you please tell me the result logged for Cc1ccc(-c2nn3c(-c4ccccc4C)nnc3c3ccccc23)cc1 in this assay?
inactive

Check the results log: what was the call for Cc1ccc(-c2cnc(NCc3ccc(C(C)C)cc3)n2C)cc1 ?
active

Which outcome was assigned to CCc1ccc(CNc2ncc(-c3cccc(OC)c3)n2C)cc1 in this test?
active

Given Cc1ccc(Cn2c(CN3CCC(C(=O)O)CC3)cc3ccccc32)cc1 , state the outcome it received in this test.
inactive

Which outcome was assigned to COc1ccc(NC(=O)CSc2nc(-c3ccc(OC)c(OC)c3)[nH]c2-c2ccc(C)cc2)cc1 in this test?
inactive

Hi team, can someone confirm the assay call for CC(C)CCOc1ccc(C(=O)Nc2sc3c(c2C#N)CCCCC3)cc1 ?
inactive

Per the assay record, what outcome was assigned to COc1ccc(-c2cc(C(=O)Nc3c(C)n(C)n(-c4ccccc4)c3=O)no2)cc1 ?
inactive

Recorded call for COc1ccc(Cl)cc1-n1nnc(-c2nc(-c3ccc4c(c3)OCO4)no2)c1C ?
inactive

* * *

In this section we review reported survival values for a set of compounds.
test system: Wild type; test: S. aureus survival, RN4220 and DeltatarO strains – OD600, teichoic acid synthesis inhibitors, primary screen (AID 463173); conditions: S. aureus RN4220 wild type/DeltatarO growth, OD600, 18 h, active compounds read low, screened at 18.75 µg/mL (by protocol)
The whole screen tested about 52,000 compounds, of which about 1,700 (3.3%) were called active. Shown is part of a subset that was picked to be rich in actives.
Numbers only here, please. The scale is %.

{"compound": "COc1ccc2nc3oc(C(=O)Nc4cccc(C(F)(F)F)c4)cc3cc2c1", "survival (%)": 66}

Could you share which survival value was measured for COc1ccc(NC(=O)c2ccco2)cc1NC(=O)C(C)Oc1ccc(Cl)cc1Cl (stereo unspecified) ?
6

Name the recorded survival for Cc1ccc2cccc(NC(=O)c3ccc(-c4ccc(Cl)cc4Cl)o3)c2n1 .
69

Fill in: survival of Cc1c(C(=O)Nc2cccc(-c3nc4ccccc4s3)c2)oc2ccccc12 is ___
98

What value of survival has been recorded for this entry: O=C(O)c1ccccc1NC(=O)N1c2ccccc2Sc2ccccc21
28

Fill blank: measured survival of the compound CCC(C)NC(=O)Cn1c(=O)n(CC2CCC(C(=O)NC)CC2)c(=O)c2sccc21 (stereo unspecified) is ____.
70

Quick one: survival of Nc1nc2n(n1)C(c1cccs1)CC(c1ccc(Cl)cc1Cl)N2 (stereo unspecified) ?
106

Please report the recorded survival for COc1ccc(NC(=O)c2ccco2)cc1NC(=O)c1cc(Cl)ccc1OC .
65

Fill in the blank: the reported survival of COc1cc2ccccc2cc1C(=O)Nc1cc(-c2nc3ccccc3o2)ccc1C is ____.
126

Quick check: survival of Cc1ccc2nc(-c3ccc(Cl)c(NC(=O)c4ccc(Br)o4)c3)oc2c1 ?
69

Quick one: survival for COc1ccc(NC(=O)c2ccco2)cc1NC(=O)C(C)C ?
90
